Origin of values: patent US12581252B2

# study-system: H1047R PIK3CA enzyme (Homo sapiens, UniProt P42336, H1047R)
# Sequence (P42336 whole entry H1047R): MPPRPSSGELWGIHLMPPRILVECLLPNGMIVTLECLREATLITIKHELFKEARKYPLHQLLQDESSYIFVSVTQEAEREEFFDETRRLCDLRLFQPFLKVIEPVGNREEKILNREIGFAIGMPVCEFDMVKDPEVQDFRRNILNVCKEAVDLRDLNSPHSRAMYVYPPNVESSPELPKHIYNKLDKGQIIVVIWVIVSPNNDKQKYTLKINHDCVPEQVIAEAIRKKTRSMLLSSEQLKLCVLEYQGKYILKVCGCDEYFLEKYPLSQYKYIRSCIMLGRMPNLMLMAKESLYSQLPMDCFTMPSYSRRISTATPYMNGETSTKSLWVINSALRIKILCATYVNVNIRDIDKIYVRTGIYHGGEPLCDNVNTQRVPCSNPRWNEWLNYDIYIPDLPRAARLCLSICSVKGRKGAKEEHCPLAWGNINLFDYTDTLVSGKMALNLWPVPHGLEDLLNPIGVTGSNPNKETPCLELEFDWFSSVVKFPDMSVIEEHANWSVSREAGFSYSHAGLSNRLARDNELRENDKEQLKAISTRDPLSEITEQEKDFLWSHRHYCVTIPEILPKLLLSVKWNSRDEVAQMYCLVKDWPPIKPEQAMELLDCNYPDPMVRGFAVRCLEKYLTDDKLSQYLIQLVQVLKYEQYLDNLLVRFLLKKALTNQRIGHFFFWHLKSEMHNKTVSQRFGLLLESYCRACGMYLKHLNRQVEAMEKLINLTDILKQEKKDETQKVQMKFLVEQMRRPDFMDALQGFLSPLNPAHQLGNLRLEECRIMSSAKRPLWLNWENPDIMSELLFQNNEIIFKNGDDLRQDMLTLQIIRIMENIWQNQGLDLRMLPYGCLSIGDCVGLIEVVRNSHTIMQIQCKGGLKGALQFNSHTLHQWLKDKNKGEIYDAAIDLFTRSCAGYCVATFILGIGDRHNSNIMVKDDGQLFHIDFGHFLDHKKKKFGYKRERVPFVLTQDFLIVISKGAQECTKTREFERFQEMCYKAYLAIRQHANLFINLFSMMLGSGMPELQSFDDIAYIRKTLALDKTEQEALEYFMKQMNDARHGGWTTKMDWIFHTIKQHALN
# Sequence (P27986 whole entry partner): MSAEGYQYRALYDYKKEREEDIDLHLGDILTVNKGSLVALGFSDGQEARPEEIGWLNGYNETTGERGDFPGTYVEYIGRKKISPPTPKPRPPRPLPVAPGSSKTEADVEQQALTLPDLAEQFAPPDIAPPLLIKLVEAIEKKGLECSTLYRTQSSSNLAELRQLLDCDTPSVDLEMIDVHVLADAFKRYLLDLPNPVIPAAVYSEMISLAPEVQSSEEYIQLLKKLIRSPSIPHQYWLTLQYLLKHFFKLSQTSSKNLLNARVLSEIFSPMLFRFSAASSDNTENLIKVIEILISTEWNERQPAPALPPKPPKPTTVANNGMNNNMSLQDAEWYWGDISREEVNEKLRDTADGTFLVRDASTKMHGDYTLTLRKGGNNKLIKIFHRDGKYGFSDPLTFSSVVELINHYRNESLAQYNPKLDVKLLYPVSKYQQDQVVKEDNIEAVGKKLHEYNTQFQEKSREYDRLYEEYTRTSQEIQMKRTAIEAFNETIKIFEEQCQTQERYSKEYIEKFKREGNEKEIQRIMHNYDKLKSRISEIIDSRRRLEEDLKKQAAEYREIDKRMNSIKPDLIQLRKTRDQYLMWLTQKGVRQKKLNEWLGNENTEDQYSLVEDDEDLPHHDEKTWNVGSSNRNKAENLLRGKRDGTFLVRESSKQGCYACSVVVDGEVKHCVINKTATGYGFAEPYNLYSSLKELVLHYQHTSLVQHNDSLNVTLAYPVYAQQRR
# assay: ADP-Glo Biochemical PIK3CA Kinase Assay
pIC50: −log10 of the molar value.

{"compound": "O=C1N[C@H](c2cc(F)ccc2Cl)c2c(NC(=O)N3C[C@@H](O)c4cc(F)ccc43)cc(-c3ccc(=O)n(C(F)F)c3)cc21 (single isomer, unassigned)", "pIC50": "6.30 to 7.00"}
{"compound": "COc1cccc(-c2cc(NC(=O)c3cc(F)cc(C(F)(F)F)c3)c3c(c2)C(=O)N[C@@H]3c2cc(F)ccc2Cl)n1 (stereo in doubt)", "pIC50": "5.00 to 6.00"}
{"compound": "O=C(Nc1cc(OCc2cccnc2)cc2c1C(c1cc(F)ccc1Cl)NC2=O)c1cc(F)cc(C(F)(F)F)c1 (stereo not shown)", "pIC50": "≥ 7.00"}
{"compound": "O=C(Nc1cc(-c2cnc3cnccn23)cc2c1C(c1cc(F)ccc1Cl)NC2=O)c1cc(F)cc(C(F)(F)F)c1 (stereo not shown)", "pIC50": "≥ 7.00"}
{"compound": "O=C1N[C@@H](c2cc(F)ccc2Cl)c2c(N[C@@H]3CCOc4ccccc43)cc(-c3cnn(C(F)F)c3)nc21", "pIC50": "5.00 to 6.00"}
{"compound": "[2H]C1(c2cc(F)ccc2Cl)NC(=O)c2cccc(NC(=O)N3CC(O)(C(F)(F)F)c4cc(F)ccc43)c21 (stereo not shown)", "pIC50": "≥ 7.00"}
{"compound": "O=C1NC(c2cc(F)ccc2Cl)c2c(NC(=O)N3CC[C@H](F)[C@@H](F)C3)cc(Br)cc21 (mixture of isomers)", "pIC50": "4.00 to 5.00"}
{"compound": "Cc1ccccc1C1NC(=O)c2cccc(NC(=O)c3nsc4ccc(C#N)cc34)c21 (stereo not shown)", "pIC50": "5.00 to 6.00"}
{"compound": "O=C(Nc1cc(C2CC(O)C2)cc2c1C(c1cc(F)ccc1Cl)NC2=O)c1cc(F)cc(C(F)(F)F)c1 (stereo not shown)", "pIC50": "≥ 7.00"}
{"compound": "Cc1cn(-c2cc(NC(=O)N3C[C@](O)(C(F)(F)F)c4cc(F)ccc43)c3c(c2)C(=O)N[C@H]3c2cc(F)ccc2Cl)cn1 (single isomer, unassigned)", "pIC50": "4.00 to 5.00"}
{"compound": "COC(=O)c1cc(NC(=O)c2cc(F)cc(C(F)(F)F)c2)c2c(c1)C(=O)NC2c1cc(F)ccc1Cl (stereo not shown)", "pIC50": "≥ 7.00"}
{"compound": "O=C(Nc1cc(-c2cnn(C3CC3)c2)cc2c1[C@H](c1cc(F)ccc1Cl)NC2=O)c1cc(F)cc(C(F)(F)F)c1 (single isomer, unassigned)", "pIC50": "≥ 7.00"}
{"compound": "Cn1c(Nc2cccc3c2C(c2cc(F)ccc2Cl)NC3=O)nnc1C1CC1 (stereo not shown)", "pIC50": "4.00 to 5.00"}

###

# study-system: H1047R PIK3CA enzyme (Homo sapiens, UniProt P42336, H1047R)
# assay: ADP-Glo Biochemical PIK3CA Kinase Assay
pIC50: −log10 of the molar value.
measure-name: pIC50

{"compound": "CCc1cc(C(=O)Nc2cc(Br)cc3c2C(c2ccccc2C)NC3=O)ccc1F (stereo not drawn)", "result": "5.00 to 6.00"}
{"compound": "O=C1NC(c2ccccc2C(F)(F)F)c2c(NC(=O)c3nsc4ccccc34)cccc21 (stereo not drawn)", "result": "4.00 to 5.00"}
{"compound": "O=C(Nc1cc(Br)cc2c1C(c1cc(F)ccc1Cl)NC2=O)NC1(C(F)(F)F)CC1 (stereo not drawn)", "result": "5.00 to 6.00"}
{"compound": "O=C(Nc1cc(Br)cc2c1C(c1ccccc1C(F)F)NC2=O)c1cc(F)cc(C(F)(F)F)c1 (stereo not drawn)", "result": "≥ 7.00"}
{"compound": "N#Cc1ccc(C(=O)Nc2cc(Br)cc3c2C(c2cc(F)ccc2Cl)NC3=O)cc1 (stereo not drawn)", "result": "4.00 to 5.00"}
{"compound": "CC(=O)N1CC(Oc2cc(NC(=O)c3cc(F)cc(C(F)(F)F)c3)c3c(c2)C(=O)NC3c2cc(F)ccc2Cl)C1 (stereo not drawn)", "result": "6.30 to 7.00"}
{"compound": "CNc1cc(NC(=O)N2C[C@](O)(C(F)(F)F)c3cc(F)ccc32)c2c(n1)C(=O)N[C@H]2c1cc(F)ccc1Cl (single isomer, unassigned)", "result": "6.30 to 7.00"}
{"compound": "O=C(Nc1cc(-c2cncc(F)c2)nc2c1C(c1cc(F)ccc1Cl)NC2=O)c1cc(F)cc(C(F)(F)F)c1 (stereo not drawn)", "result": "≥ 7.00"}
{"compound": "C[C@]1(O)CN(C(=O)Nc2cc(Br)cc3c2C(c2cc(F)ccc2Cl)NC3=O)c2ccccc21 (single isomer, unassigned)", "result": "5.00 to 6.00"}
{"compound": "Cc1ccccc1[C@H]1NC(=O)c2cccc(NC(=O)c3csc4c(F)cccc34)c21", "result": "6.30 to 7.00"}
{"compound": "O=C(Nc1cc(C(F)(F)F)ccc1Cl)Nc1cc(Br)cc2c1C(c1cc(F)ccc1Cl)NC2=O (stereo not drawn)", "result": "6.30 to 7.00"}
{"compound": "O=C1N[C@@H](c2cc(F)ccc2Cl)c2c(NC(=O)N3C[C@H](O)c4cc(F)ccc43)cc(Cl)cc21 (single isomer, unassigned)", "result": "6.30 to 7.00"}
